Reference source for all entries: paper PMC13494018

- tested_target: VTCN1, Q7Z7D3
- Sequence (Q7Z7D3 whole entry): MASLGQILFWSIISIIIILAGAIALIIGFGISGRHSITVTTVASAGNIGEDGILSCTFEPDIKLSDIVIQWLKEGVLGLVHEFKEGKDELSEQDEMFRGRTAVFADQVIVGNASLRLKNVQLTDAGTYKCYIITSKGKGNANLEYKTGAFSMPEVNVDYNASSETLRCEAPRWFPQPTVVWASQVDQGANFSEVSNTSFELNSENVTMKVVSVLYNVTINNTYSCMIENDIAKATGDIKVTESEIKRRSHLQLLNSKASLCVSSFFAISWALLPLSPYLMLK
measured_metric: binding in a display sort

• design_602_0a1f3d3d-7d26-454b-9b34-ebe8ef9bc7d4_487_dldesign_0_cycle1_af2pred (protein) EEEKRIEEAKKKAREAAEKAREYGKKIIKLGYDPKKAAELAQKAQEARAEAEALPEKAEEAAKKAKEAAEELEKLLKEAEA = not found (inactive)
• design_605_6ebdab39-eaab-4492-afcb-164e20c3b25e_501_dldesign_0_cycle1_af2pred (protein) AAAEEAAKKALKELKEEAKKLVEEAKKSNAEEAKKKRKEVVELGKEYAEKAAASPEVQKEIAKVVHEAQEELAEAAFEHSRKEKE = not found (inactive)
• design_596_3e5f537c-0703-45f0-993f-ff416531349a_8_dldesign_0_cycle1_af2pred (protein) EEEEREKVIKKAKEVLDRNGKKALEYAKIVPEVAPEVEKTIKESRAEIEKAAGLSLEEAQKAAAAAVHKVQELRAEAYFLAEKKK = not found (inactive)
